System: D(2) dopamine receptor (Rattus norvegicus, UniProt P61169) | Read-out: pKi | Origin: multiple publications
Sequence (P61169 whole entry): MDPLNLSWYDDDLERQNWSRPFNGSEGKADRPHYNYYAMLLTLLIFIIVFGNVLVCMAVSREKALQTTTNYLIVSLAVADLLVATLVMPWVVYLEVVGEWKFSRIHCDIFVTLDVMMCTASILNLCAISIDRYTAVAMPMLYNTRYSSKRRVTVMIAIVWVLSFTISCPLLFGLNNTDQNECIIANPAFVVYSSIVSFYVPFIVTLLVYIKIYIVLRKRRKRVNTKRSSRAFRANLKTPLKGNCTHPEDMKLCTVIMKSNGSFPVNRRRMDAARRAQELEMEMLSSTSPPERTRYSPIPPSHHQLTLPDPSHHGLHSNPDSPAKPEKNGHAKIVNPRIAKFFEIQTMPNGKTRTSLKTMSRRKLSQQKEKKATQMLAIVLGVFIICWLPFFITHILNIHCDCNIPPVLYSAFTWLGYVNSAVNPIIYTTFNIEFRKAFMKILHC
pKi: −log10 of the molar value.
measuredQuantity: pKi

// known answers, use as guide
stdin: pKi lookup needed for CCCN(CCN1CCN(C(=O)c2cc3ccccc3[nH]2)CC1)[C@@H]1CCc2nc(N)sc2C1 , thanks.
stdout: 5.59

stdin: Same thing, different compound: O=C(CCN1CCN(c2cccc(Cl)c2Cl)CC1)c1cc2c3c(c1)CCN3C(=O)CC2
stdout: 6.73

[P] O=C(NCCCN1CCN(c2ccccc2)CC1)C1c2ccccc2-c2ccccc21
[Q] CN1CCc2ccc(OCCCN3CCN(c4cccc(Cl)c4Cl)CC3)cc2C1=O
[R] Cc1c(C)c2ccc(OCCCCN3CCC(c4noc5cc(F)ccc45)CC3)c(C)c2oc1=O
stdin: Please list the entries, largest pKi first. Sort the labels as requested; that list is your answer.
stdout: R, Q, P
